- Test system: Acinetobacter baumannii
- experimental.details: Antibacterial activity against imipenem-resistant Acinetobacter baumannii ab1266 by broth dilution method
- Assay type: functional
What MIC was measured for each of the following?

The examples below pair each entry with its known result.
CCN1CCN(C(=O)N[C@@H](C(=O)N[C@@H]2C(=O)N3[C@@H]2SC(C)(C)[C@@H]3C(=O)O)c2ccccc2)C(=O)C1=O :: > 256 µg/mL
CO/N=C(\C(=O)N[C@@H]1C(=O)N2C(C(=O)O)=C(COC(C)=O)CS[C@H]12)c1csc(N)n1 :: > 256 µg/mL
C[C@@H](O)[C@H]1C(=O)N2C(C(=O)O)=C(SCCNC=N)C[C@H]12 [IMIPENEM ANHYDROUS] :: > 32 µg/mL
C[C@@H](O)[C@H]1C(=O)N2C(C(=O)O)=C(S[C@@H]3CN[C@H](C(=O)N(C)C)C3)[C@H](C)[C@H]12 :: > 32 µg/mL
NCC[C@H](O)C(=O)N[C@@H]1C[C@H](N)[C@@H](O[C@H]2O[C@H](CN)[C@@H](O)[C@H](O)[C@H]2O)[C@H](O)[C@H]1O[C@H]1O[C@H](CO)[C@@H](O)[C@H](N)[C@H]1O :: > 256 µg/mL
CC(C)(O/N=C(\C(=O)N[C@@H]1C(=O)N2C(C(=O)[O-])=C(C[n+]3ccccc3)CS[C@H]12)c1csc(N)n1)C(=O)O :: > 256 µg/mL

// below: MIC requested for another molecule
Quick note, MIC for O=C(O)c1cn(C2CC2)c2cc(N3CCNCC3)c(F)cc2c1=O landed at > 32 µg/mL
